testedOn: N-type calcium channel (NTCC) (Homo sapiens, UniProt Q00975)
Sequence (Q00975 whole entry): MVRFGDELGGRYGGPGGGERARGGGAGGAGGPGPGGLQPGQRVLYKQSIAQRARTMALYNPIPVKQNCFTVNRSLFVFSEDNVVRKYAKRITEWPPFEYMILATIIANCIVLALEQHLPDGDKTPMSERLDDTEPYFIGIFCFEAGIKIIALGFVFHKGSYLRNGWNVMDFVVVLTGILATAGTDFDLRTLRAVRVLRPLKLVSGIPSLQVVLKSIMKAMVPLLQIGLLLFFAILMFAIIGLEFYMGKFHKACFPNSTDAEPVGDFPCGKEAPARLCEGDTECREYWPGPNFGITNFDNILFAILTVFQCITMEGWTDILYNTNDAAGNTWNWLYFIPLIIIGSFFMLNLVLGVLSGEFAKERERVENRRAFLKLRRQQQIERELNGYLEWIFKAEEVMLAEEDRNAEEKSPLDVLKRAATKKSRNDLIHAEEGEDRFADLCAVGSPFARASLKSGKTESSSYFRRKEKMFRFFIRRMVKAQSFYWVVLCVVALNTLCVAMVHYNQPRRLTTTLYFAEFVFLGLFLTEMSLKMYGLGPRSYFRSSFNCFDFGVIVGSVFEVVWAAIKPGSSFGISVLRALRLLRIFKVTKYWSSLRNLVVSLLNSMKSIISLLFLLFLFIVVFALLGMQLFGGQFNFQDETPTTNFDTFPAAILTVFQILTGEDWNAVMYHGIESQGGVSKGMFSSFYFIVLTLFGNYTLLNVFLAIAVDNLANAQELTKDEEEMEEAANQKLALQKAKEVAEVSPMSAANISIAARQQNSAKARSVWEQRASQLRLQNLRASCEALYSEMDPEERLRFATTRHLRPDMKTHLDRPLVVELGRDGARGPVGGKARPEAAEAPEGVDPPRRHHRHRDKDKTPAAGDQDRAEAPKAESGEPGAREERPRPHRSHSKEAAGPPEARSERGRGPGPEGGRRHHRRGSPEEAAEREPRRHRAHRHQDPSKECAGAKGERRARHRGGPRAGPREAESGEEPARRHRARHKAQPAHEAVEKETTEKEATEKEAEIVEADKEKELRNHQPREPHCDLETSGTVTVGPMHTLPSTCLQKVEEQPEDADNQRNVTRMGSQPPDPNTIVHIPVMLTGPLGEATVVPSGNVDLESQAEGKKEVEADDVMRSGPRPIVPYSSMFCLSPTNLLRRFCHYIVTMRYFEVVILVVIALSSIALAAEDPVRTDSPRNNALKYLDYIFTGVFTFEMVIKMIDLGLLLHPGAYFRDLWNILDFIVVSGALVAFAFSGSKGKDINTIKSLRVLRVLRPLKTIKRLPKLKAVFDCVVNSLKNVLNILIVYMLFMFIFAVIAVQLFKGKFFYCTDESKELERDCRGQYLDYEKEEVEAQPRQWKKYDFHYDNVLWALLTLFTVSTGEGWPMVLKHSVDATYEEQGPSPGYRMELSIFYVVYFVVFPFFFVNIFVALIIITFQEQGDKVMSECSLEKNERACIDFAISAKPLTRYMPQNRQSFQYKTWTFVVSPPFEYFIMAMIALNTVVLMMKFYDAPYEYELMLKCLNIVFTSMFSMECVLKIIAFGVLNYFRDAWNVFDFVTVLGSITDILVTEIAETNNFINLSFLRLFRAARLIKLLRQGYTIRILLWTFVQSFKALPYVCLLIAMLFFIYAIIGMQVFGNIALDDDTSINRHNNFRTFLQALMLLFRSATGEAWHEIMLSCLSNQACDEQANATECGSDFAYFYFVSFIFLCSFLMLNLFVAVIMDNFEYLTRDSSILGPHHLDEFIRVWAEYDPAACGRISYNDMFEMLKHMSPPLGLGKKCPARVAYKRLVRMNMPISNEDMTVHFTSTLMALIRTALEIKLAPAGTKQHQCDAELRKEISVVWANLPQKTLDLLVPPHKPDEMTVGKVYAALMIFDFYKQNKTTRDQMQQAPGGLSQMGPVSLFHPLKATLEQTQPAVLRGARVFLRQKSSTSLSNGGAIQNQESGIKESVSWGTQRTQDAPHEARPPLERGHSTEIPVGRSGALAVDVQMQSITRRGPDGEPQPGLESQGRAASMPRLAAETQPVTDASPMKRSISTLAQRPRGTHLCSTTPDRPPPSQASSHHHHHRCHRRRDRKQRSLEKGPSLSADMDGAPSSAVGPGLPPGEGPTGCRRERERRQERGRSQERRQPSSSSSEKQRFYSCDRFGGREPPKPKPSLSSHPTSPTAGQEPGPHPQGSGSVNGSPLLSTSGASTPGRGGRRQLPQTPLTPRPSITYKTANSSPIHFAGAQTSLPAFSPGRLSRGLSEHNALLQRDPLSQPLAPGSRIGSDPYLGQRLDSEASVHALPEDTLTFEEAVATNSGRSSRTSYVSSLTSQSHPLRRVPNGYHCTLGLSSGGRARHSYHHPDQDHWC
Sequence (P54289 25-956 partner limits assumed): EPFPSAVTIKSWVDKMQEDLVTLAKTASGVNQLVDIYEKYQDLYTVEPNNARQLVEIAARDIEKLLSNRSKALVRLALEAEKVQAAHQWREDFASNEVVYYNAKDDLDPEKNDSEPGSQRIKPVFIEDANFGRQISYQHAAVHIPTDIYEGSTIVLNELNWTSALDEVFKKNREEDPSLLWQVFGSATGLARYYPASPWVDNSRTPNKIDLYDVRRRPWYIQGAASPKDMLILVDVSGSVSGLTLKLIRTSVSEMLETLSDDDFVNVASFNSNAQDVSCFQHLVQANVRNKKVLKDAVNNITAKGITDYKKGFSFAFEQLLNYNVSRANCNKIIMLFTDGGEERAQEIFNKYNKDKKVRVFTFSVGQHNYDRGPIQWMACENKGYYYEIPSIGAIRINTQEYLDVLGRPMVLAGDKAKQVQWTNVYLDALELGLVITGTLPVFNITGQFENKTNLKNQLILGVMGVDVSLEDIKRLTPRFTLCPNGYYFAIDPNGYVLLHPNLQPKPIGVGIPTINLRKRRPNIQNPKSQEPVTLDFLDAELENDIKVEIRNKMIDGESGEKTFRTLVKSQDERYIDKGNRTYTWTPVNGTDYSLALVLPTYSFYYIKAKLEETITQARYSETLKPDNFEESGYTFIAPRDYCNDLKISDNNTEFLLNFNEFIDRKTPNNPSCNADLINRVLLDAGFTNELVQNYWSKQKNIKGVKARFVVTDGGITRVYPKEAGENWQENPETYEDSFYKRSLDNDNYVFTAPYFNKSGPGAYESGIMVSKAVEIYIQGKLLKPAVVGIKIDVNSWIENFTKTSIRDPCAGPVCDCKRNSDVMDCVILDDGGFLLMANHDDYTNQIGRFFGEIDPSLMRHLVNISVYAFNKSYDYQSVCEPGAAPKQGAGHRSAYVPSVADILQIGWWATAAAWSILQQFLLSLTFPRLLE
Sequence (P54289 957-1103 partner limits assumed): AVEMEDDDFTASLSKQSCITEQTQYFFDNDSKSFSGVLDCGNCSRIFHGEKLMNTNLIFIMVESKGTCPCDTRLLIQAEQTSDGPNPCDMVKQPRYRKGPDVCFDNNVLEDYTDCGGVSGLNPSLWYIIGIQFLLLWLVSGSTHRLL
Sequence (P54284 whole entry partner): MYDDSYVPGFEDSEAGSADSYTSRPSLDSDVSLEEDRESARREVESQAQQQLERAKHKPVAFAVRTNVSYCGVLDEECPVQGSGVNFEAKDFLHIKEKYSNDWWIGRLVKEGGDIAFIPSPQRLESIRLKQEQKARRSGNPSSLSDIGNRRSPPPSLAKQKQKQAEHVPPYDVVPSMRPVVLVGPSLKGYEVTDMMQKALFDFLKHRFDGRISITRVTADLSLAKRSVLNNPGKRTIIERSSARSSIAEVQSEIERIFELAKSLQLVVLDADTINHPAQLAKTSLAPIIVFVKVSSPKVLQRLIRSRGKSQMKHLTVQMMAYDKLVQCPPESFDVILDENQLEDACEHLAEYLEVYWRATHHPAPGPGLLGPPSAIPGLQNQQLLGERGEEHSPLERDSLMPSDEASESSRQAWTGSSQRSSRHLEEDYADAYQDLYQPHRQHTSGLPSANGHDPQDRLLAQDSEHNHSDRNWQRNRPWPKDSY
experimentNotes: FLIPR calcium mobilization assay for N-type calcium channel
testParameters: calcium mobilization in vitro assay; differentiated IMR32 cells
resultType: IC50 (nM)

Consider the reported IC50 for these compounds:
CC(C)N(C1CCN(C(=O)[C@H](Cc2ccccc2)NCC2CCCCC2)CC1)S(=O)(=O)c1cccc(C(F)(F)F)c1 [Compound 88d] = 100
O=C(CN1CCC(N(C2CC2)S(=O)(=O)c2cccc(C(F)(F)F)c2)CC1)Nc1ccc(Cl)cc1OC(F)(F)F = 1830

(1) CC(C)N(C1CCN(C(=O)CNCC2CCCCC2)CC1)S(=O)(=O)c1cccc(C(F)(F)F)c1
(2) O=C(CN1CCC(NS(=O)(=O)c2cccc(C(F)(F)F)c2)CC1)Nc1ccc(C(F)(F)F)c(C(F)(F)F)c1
Data request: Form: Entry with minimum IC50 (choose one): 1 / 2 When you have decided, please share the label of that item.
Data returned: 1

FYI, the data here is from patent US8791264B2.
